Data provenance is patent US8252958B2.

biological target: delF508-CFTR (Homo sapiens, UniProt P13569, DEL508-508); construct: The CF15 cells are human epithelial cells of nasal origin which express the ΔF508-CFTR gene; endogenous in cells; assay: Iodide efflux (radiotracer) after 2 h treatment of CF15 cells, forskolin activation; conditions: CF15 cells, 2 h of treatment, iodide efflux; read-out: EC50 of readdressing of the protein F508del-CFTR
Sequence (P13569 with tags, fused parts or gaps DEL508-508): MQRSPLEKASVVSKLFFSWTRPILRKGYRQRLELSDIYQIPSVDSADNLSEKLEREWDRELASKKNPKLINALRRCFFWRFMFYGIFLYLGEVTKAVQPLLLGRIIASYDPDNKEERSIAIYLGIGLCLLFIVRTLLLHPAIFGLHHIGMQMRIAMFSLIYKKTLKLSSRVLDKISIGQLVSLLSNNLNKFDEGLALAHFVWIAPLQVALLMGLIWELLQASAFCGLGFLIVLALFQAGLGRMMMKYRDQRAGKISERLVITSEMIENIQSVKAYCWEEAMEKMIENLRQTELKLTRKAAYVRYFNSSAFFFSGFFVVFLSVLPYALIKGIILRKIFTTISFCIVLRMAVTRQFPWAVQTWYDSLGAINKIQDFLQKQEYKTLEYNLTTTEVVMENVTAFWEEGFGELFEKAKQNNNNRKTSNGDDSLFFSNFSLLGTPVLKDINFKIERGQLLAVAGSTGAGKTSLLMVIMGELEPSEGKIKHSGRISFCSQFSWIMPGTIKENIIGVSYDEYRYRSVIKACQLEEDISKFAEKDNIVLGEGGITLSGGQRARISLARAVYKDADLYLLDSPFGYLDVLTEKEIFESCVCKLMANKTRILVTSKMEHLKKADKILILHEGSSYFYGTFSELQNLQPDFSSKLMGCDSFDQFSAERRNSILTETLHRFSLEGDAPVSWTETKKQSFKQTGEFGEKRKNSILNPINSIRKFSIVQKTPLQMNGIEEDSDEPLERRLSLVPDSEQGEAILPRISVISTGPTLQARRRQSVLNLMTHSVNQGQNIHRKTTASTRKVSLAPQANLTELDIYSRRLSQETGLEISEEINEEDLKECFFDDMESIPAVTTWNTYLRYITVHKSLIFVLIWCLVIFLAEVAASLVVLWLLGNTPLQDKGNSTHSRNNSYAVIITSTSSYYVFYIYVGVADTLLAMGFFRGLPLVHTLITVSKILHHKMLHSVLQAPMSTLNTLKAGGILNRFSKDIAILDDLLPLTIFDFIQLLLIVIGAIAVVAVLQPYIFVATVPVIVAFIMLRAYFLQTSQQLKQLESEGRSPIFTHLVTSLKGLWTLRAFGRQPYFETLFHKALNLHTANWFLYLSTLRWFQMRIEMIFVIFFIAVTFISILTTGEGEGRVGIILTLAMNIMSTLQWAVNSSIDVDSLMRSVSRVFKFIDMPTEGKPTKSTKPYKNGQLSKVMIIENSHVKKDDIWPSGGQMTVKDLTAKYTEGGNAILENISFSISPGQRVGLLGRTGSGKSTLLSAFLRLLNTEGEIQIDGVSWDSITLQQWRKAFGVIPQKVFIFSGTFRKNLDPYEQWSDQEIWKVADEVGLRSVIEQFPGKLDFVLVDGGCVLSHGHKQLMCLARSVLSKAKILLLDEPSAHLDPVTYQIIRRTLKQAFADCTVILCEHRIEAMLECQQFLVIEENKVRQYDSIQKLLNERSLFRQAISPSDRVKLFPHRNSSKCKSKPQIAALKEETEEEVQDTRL
pEC50: −log10 of the molar value.
REPORTED PROPERTY: pEC50

> print(dat)
                                 compound  reported.property  value.measured
1  N=C(N)N/N=C/c1c(Cl)cccc1Cl [guanabenz]              pEC50            4.40
